- tested target: NAD-dependent protein deacetylase sirtuin-1 (Homo sapiens)
- procedure summary: Inhibition of recombinant human C-terminal His6-tagged SIRT1 (Met1 to Ser747 residues) demyristoylase activity expressed in Escherichia coli at 1 uM using p53(Myr)-AMC as substrate measured after 3 hrs in presence of NAD+ and trypsin by fluorescence assay relative to control
Residues, ends and D or L forms follow the SMILES beside them. *: point of attachment. Phenylacetyl(4-E-phenylazo) = O=C(Cc1ccc(/N=N/c2ccccc2)cc1)*; X3 = CN(C)c1ccc(/N=N/c2ccc(CCC(=O)*)cc2)cc1; X2 = CN(C)c1ccc(/N=N/c2ccc(C(=O)*)cc2)cc1
quantity name: inhibition (%)

# compound, reading
records = [
    ("CC[C@H](C)[C@H](NC(=O)[C@@H](NC(=O)[C@H](CCCCNC(=O)c1ccc(/N=N/c2ccc(N(C)C)cc2)cc1)NC(=O)[C@H](CC(=O)O)NC(=O)[C@H](CO)NC(C)=O)[C@@H](C)O)C(N)=O (Ac-SDK(X2)TI-NH2)", 3.2),
    ("CC[C@H](C)[C@H](NC(=O)[C@@H](NC(=O)[C@H](CCCCNC(=O)Cc1ccc(/N=N/c2ccccc2)cc1)NC(=O)[C@H](CC(=O)O)NC(=O)[C@H](CO)NC(C)=O)[C@@H](C)O)C(N)=O (Ac-SDK(Phenylacetyl(4-E-phenylazo))TI-NH2)", 31),
    ("C[C@H](NC(=O)[C@H](CCCCNC(=O)Cc1ccc(/N=N/c2ccc(OCCc3ccccc3)cc2)cc1)NC(=O)OCc1ccccc1)C(N)=O", 6.3),
]

(1) CC[C@H](C)[C@H](NC(=O)[C@H](CCCNC(=N)N)NC(C)=O)C(=O)N[C@@H](CCCCNC(=O)CCc1ccc(/N=N/c2ccc(N(C)C)cc2)cc1)C(=O)N[C@@H](CCCNC(=N)N)C(=O)N[C@@H](Cc1ccc(O)cc1)C(N)=O (Ac-RIK(X3)RY-NH2)
(2) CCCCCCCCCCCCCC(=O)NCCCC[C@H](NC(=O)OCc1ccccc1)C(=O)Nc1ccccc1
input: In the pair 1 and 2 , the larger recorded inhibition belongs to which? # respond with the chosen item's label
output: 1

---

- Test system: HeLa
- procedure summary: Cytotoxicity against human HeLa cells assessed as reduction in cell viability at 50 uM measured after 72 hrs by CCK8 assay
- Format: functional, cell-based
The source made the active and inactive calls. The rule behind the calls is not given here. Non-standard residues stand in square brackets, D forms with d. Residues, ends and D or L forms follow the SMILES beside them. *: point of attachment. Phenylacetyl(4-E-phenylazo) = O=C(Cc1ccc(/N=N/c2ccccc2)cc1)*; Lys(thiomyristoyl) = CCCCCCCCCCCCCC(=S)NCCCC[C@H](N)C(=O)O; X1 = O=C(Cc1ccc(/N=N/c2ccc(O)cc2)cc1)*
Your reply should match one of these outcome classes. YES (active), NO (inactive)

Completed entries (count: 3):
# molecule, cat
data = [
    ("CC[C@H](C)[C@H](NC(=O)[C@H](CCCNC(=N)N)NC(C)=O)C(=O)N[C@@H](CCCCNC(=O)Cc1ccc(/N=N/c2ccccc2)cc1)C(=O)N[C@@H](CCCNC(=N)N)C(=O)N[C@@H](Cc1ccc(O)cc1)C(N)=O (Ac-RIK(Phenylacetyl(4-E-phenylazo))RY-NH2)", "NO"),
    ("CCCCCCCCCCCCCC(=S)NCCCC[C@H](NC(=O)[C@@H](NC(=O)[C@H](CCCNC(=N)N)NC(C)=O)[C@@H](C)CC)C(=O)N[C@@H](CCCNC(=N)N)C(=O)N[C@@H](Cc1ccc(O)cc1)C(N)=O (Ac-RI[Lys(thiomyristoyl)]RY-NH2)", "NO"),
    ("CCCCCCCCCCCCCC(=S)NCCCC[C@H](NC(=O)OCc1ccccc1)C(=O)Nc1ccccc1", "YES"),
]

Next up:
input: Status in this test for CC[C@H](C)[C@H](NC(=O)[C@H](CCCNC(=N)N)NC(C)=O)C(=O)N[C@@H](CCCCNC(=O)Cc1ccc(/N=N/c2ccc(O)cc2)cc1)C(=O)N[C@@H](CCCNC(=N)N)C(=O)N[C@@H](Cc1ccc(O)cc1)C(N)=O (Ac-RIK(X1)RY-NH2) ?
output: NO

---

- tested target: NAD-dependent protein deacetylase sirtuin-1 (Homo sapiens)
- Sequence (whole entry): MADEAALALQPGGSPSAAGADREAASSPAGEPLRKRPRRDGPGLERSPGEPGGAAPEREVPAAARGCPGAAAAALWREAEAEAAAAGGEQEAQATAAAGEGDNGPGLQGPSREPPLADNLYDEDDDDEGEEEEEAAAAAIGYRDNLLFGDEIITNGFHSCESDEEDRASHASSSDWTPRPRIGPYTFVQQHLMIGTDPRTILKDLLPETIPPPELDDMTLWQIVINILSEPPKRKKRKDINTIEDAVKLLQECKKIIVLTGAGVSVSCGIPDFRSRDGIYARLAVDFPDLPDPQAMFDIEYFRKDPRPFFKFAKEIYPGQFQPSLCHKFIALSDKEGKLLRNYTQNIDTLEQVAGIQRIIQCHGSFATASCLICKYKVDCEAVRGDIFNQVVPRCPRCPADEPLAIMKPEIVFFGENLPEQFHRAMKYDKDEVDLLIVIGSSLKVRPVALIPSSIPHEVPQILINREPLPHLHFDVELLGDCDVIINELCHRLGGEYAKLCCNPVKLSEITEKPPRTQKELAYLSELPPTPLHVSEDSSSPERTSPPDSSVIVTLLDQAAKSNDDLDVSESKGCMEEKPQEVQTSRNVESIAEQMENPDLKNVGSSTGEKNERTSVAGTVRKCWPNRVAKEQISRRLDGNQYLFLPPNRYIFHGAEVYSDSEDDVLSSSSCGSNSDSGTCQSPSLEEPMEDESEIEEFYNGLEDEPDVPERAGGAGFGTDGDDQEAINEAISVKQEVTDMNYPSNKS
- procedure summary: Inhibition of recombinant human C-terminal His6-tagged SIRT1 (Met1 to Ser747 residues) demyristoylase activity expressed in Escherichia coli at 1 uM using p53(Myr)-AMC as substrate measured after 3 hrs in presence of NAD+ and trypsin by fluorescence assay relative to control
Counter-ions that a name gives are not always drawn. Residues, ends and D or L forms follow the SMILES beside them. *: point of attachment. X2 = CN(C)c1ccc(/N=N/c2ccc(C(=O)*)cc2)cc1; Tfa = O=C(C(F)(F)F)*
quantity name: inhibition (%)

(1) C[C@H](NC(=O)[C@H](CCCCNC(=O)Cc1ccc(/N=N/c2ccc(OCc3ccccc3)cc2)cc1)NC(=O)OCc1ccccc1)C(N)=O
(2) CC[C@H](C)[C@H](NC(=O)[C@H](CCCNC(=N)N)NC(C)=O)C(=O)N[C@@H](CCCCNC(=O)C(F)(F)F)C(=O)N[C@@H](CCCNC(=N)N)C(=O)N[C@@H](Cc1ccc(O)cc1)C(N)=O (Ac-RIK(Tfa)RY-NH2)
(3) C[C@H](NC(=O)[C@H](CCCCNC(=O)Cc1ccc(/N=N/c2ccc(O)cc2)cc1)NC(=O)OCc1ccccc1)C(N)=O
input: With the 3 molecules above, produce a list ordered by ascending inhibition. Present the labels in the sequence the task asks for.
output: 1, 3, 2
(1: 2.8%, 3: 20%, 2: 32%)

(a) CCCCCCCCCCCCCC(=S)NCCCC[C@H](NC(=O)OCc1ccccc1)C(=O)Nc1ccccc1
(b) CC[C@H](C)[C@H](NC(=O)[C@H](CCCNC(=N)N)NC(C)=O)C(=O)N[C@@H](CCCCNC(=O)c1ccc(/N=N/c2ccc(N(C)C)cc2)cc1)C(=O)N[C@@H](CCCNC(=N)N)C(=O)N[C@@H](Cc1ccc(O)cc1)C(N)=O (Ac-RIK(X2)RY-NH2)
input: In the pair a and b , the larger recorded inhibition belongs to which? # respond with the chosen item's label
output: b

---

- tested target: NAD-dependent protein deacetylase sirtuin-1 (Homo sapiens) (UniProt Q96EB6)
- procedure summary: Inhibition of recombinant human C-terminal His6-tagged SIRT1 (Met1 to Ser747 residues) defatty-acylase activity expressed in Escherichia coli at 2 uM using SFP3 as substrate measured at 5 mins interval for 60 mins in presence of NAD+ by fluorescence assay relative to control
Residues, ends and D or L forms follow the SMILES beside them. *: point of attachment. Phenylacetyl(4-E-phenylazo) = O=C(Cc1ccc(/N=N/c2ccccc2)cc1)*; X2 = CN(C)c1ccc(/N=N/c2ccc(C(=O)*)cc2)cc1
quantity name: inhibition (%)

// worked examples, inhibition included
# molecule, tested target, inhibition [%]
data = [
    ("CCCCCCCCCCCCCC(=O)NCCCC[C@H](NC(=O)OCc1ccccc1)C(=O)Nc1ccccc1", "NAD-dependent protein deacetylase sirtuin-1 (Homo sapiens) (UniProt Q96EB6)", -0.59),
    ("CC[C@H](C)[C@H](NC(=O)[C@@H](NC(=O)[C@H](CCCCNC(=O)Cc1ccc(/N=N/c2ccccc2)cc1)NC(=O)[C@H](CC(=O)O)NC(=O)[C@H](CO)NC(C)=O)[C@@H](C)O)C(N)=O (Ac-SDK(Phenylacetyl(4-E-phenylazo))TI-NH2)", "NAD-dependent protein deacetylase sirtuin-1 (Homo sapiens) (UniProt Q96EB6)", 18),
    ("CC[C@H](C)[C@H](NC(=O)[C@H](CCCNC(=N)N)NC(C)=O)C(=O)N[C@@H](CCCCNC(=O)c1ccc(/N=N/c2ccc(N(C)C)cc2)cc1)C(=O)N[C@@H](CCCNC(=N)N)C(=O)N[C@@H](Cc1ccc(O)cc1)C(N)=O (Ac-RIK(X2)RY-NH2)", "NAD-dependent protein deacetylase sirtuin-1 (Homo sapiens) (UniProt Q96EB6)", 22),
    ("C[C@H](NC(=O)[C@H](CCCCNC(=O)Cc1ccc(/N=N/c2ccc(O)cc2)cc1)NC(=O)OCc1ccccc1)C(N)=O", "NAD-dependent protein deacetylase sirtuin-1 (Homo sapiens) (UniProt Q96EB6)", 8.8),
]

(I) CCCCCCCCCCCCCC(=S)NCCCC[C@H](NC(=O)OCc1ccccc1)C(=O)Nc1ccccc1
(II) C[C@H](NC(=O)[C@H](CCCCNC(=O)Cc1ccc(/N=N/c2ccc(OCCc3ccccc3)cc2)cc1)NC(=O)OCc1ccccc1)C(N)=O
input: # min-compare on inhibition between I and II # respond with the chosen item's label
output: I
(I: 0.81%, II: 2%)
